Tested on: morning glory (Ipomoea spp.)
Assay: Test A postemergence, sprayed to runoff
Format: in vivo
Set-up: scale not given here
Details: Rate 2000 g/ha, Morningglory, approx. eleven days
Property label: Plant response rating (visual injury vs untreated controls)

Molecule: O=C1C(n2cccn2)CCN1c1cccc(C(F)(F)F)c1 (centres unmarked) [Compound 15]
Tested system: morning glory (Ipomoea spp.)
Numeric value: 20

Molecule: CC1CCc2cn(C3CCN(c4cccc(C(F)(F)F)c4)C3=O)nc21 (centres unmarked) [Compound 11]
Tested system: morning glory (Ipomoea spp.)
Numeric value: 10

Molecule: Cc1ccn(C2CCN(c3cccc(C(F)(F)F)c3)C2=O)n1 (centres unmarked) [Compound 16]
Tested system: morning glory (Ipomoea spp.)
Numeric value: 20

Molecule: O=C1C(n2cc(Cl)c(C3CC3)n2)CCN1c1cccc(C(F)(F)F)c1 (centres unmarked) [Compound 12]
Tested system: morning glory (Ipomoea spp.)
Numeric value: 0

Molecule: CCC(C)c1nn(C2CCN(c3cccc(C(F)(F)F)c3)C2=O)cc1Cl (centres unmarked) [Compound 13]
Tested system: morning glory (Ipomoea spp.)
Numeric value: 0

----------
Test system: pigweed (Amaranthus retroflexus)
Test: Test C preemergence
Format: in vivo
Details: Rate 125 g/ha; scale 0 to 100, 0 no effect, 100 complete control
Property label: Plant response rating, Pigweed

Molecule: CCCC(C)c1ccn(C2CCN(c3cccc(C(F)(F)F)c3)C2=O)n1 (stereo not shown)
Property label: Plant response rating, Pigweed
Numeric value: 0

Molecule: COc1cc(N2CCC(n3ccc(C(C)C)n3)C2=O)ccc1Cl (stereo not shown)
Property label: Plant response rating, Pigweed
Numeric value: 100

Molecule: CC(C)(C)c1ccn(C2CCN(c3ccc(F)c(Br)c3)C2=O)n1 (stereo not shown)
Property label: Plant response rating, Pigweed
Numeric value: 100

Molecule: CCCC(C)c1ccn(C2CCN(c3ccc(Cl)c(OC)c3)C2=O)n1 (stereo not shown)
Property label: Plant response rating, Pigweed
Numeric value: 50

Molecule: Cc1ccc(N2CCC(n3ccc(C(C)(C)C)n3)C2=O)cc1OC(F)F (stereo not shown)
Property label: Plant response rating, Pigweed
Numeric value: 10

Molecule: CCCC(C)c1ccn(C2CCN(c3cccc(OC)c3)C2=O)n1 (stereo not shown)
Property label: Plant response rating, Pigweed
Numeric value: 90

Molecule: COC(=O)c1cccc(N2CCC(n3ccc(C(C)(C)C)n3)C2=O)c1 (stereo not shown)
Property label: Plant response rating, Pigweed
Numeric value: 0

----------
Tested on: Surinam grass (Brachiaria decumbens)
Assay: Test C preemergence
Assay type: in vivo
Conditions: preemergence; Rate 250 g/ha; scale 0 to 100, 0 no effect, 100 complete control

Molecule: COc1cc(N2CCC(n3ccc(C(C)C)n3)C2=O)ccc1Cl (stereo not drawn) [Compound 120]
Plant response rating, Surinam grass: 100
--
Molecule: CCC(CC)c1ccn(C2CCN(c3ccc(F)c(C(F)(F)F)c3)C2=O)n1 (stereo not drawn) [Compound 144]
Plant response rating, Surinam grass: 0
--
Molecule: CCC(C)c1ccn(C2CCN(c3ccc(Cl)c(OC)c3)C2=O)n1 (stereo not drawn) [Compound 119]
Plant response rating, Surinam grass: 100
--
Molecule: CCC(CC)c1ccn(C2CCN(c3ccc(Br)c(OC)c3)C2=O)n1 (stereo not drawn) [Compound 143]
Plant response rating, Surinam grass: 70
--
Molecule: CCC(C)Oc1cccc(N2CCC(n3ccc(C(C)(C)C)n3)C2=O)c1 (stereo not drawn) [Compound 127]
Plant response rating, Surinam grass: 20
--
Molecule: CCCC(C)c1ccn(C2SCN(c3cccc(OC(F)(F)F)c3)C2=O)n1 (stereo not drawn) [Compound 90]
Plant response rating, Surinam grass: 40
--
Molecule: CCC(CC)c1ccn(C2CCN(c3cccc(OC)c3)C2=O)n1 (stereo not drawn) [Compound 96]
Plant response rating, Surinam grass: 100
--
Molecule: CCC(C)c1ccn(C2CCN(c3cccc(OC)c3)C2=O)n1 (stereo not drawn) [Compound 95]
Plant response rating, Surinam grass: 50
--
Molecule: COc1cc(N2CCC(n3ccc(C(C)(C)C)n3)C2=O)ccc1Cl (stereo not drawn) [Compound 117]
Plant response rating, Surinam grass: 75
--
Molecule: CC(C)c1cccc(N2CCC(n3ccc(C(C)(C)C)n3)C2=O)c1 (stereo not drawn) [Compound 111]
Plant response rating, Surinam grass: 0
--
Molecule: CCC(C)c1ccn(C2OCN(c3cccc(OC(F)F)c3)C2=O)n1 (stereo not drawn) [Compound 134]
Plant response rating, Surinam grass: 100
--
Molecule: CC(C)(C)c1ccn(C2CCN(c3cccc(SC(F)(F)F)c3)C2=O)n1 (stereo not drawn) [Compound 93]
Plant response rating, Surinam grass: 30
